Biological target: furin, P09958;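 also: purified furin at 1:10 enzyme:substrate in 50 mM HEPES pH 7.5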
Sequence (P09958 whole entry): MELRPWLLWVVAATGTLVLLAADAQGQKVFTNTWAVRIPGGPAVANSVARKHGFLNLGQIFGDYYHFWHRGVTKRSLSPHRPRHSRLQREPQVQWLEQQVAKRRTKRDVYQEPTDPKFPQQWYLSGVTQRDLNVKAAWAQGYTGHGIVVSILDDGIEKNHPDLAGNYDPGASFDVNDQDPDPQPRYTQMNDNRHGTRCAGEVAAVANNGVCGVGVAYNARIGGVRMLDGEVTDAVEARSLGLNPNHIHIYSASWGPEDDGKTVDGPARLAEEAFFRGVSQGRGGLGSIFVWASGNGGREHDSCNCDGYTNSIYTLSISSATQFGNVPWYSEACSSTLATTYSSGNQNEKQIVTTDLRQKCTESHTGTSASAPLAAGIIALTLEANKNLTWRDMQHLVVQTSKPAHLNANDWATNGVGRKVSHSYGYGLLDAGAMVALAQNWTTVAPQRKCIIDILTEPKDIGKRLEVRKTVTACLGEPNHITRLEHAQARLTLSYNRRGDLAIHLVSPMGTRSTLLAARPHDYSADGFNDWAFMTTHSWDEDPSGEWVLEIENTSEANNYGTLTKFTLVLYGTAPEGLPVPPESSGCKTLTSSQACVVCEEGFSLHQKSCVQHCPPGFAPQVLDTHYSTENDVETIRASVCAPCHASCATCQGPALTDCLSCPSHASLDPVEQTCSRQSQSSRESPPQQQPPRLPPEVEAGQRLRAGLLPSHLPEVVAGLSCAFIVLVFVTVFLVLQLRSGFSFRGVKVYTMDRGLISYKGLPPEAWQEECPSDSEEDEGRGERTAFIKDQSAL
Assay: furin cleavage Z-score vs untreated control; higher = more cleavage, active = 3.5 or more, inactive = 1 or less, 8 variable residues between constant flanks
Details: 30 min
Some of the results follow. No count for the full screen is at hand.
Category | rule: reported furin cleavage Z-score within range, see low value (below -0.5), medium value (-0.5 to below 1), high value (1 or more)

The following sequences have reported results that may help.
CAEWTTPCSGAGNASASA [HC1968] = medium value
CAHLHQNIVDAGNASASA [HC506] = low value
CARTQRSTEIAGNASASA [FS-2614] = high value
CAYVTGMTTDAGNASASA [HC1211] = low value

Exercise: Which class is correct for the following sequence? CAVVTSTWVLAGNASASA [HC988]
Solution: low value

Exercise: Could you do the same for CAAFSLHSYSAGNASASA [HC1606] , please?
Solution: medium value

Exercise: Could you do the same for CAVMHRVARHAGNASASA [FS-1431] , please?
Solution: high value

Exercise: Could you do the same for CASTPCSAGLAGNASASA [HC2556] , please?
Solution: medium value

Value source: the supplement of paper PMC3545927
